Where do the numbers come from? From ChEMBL document CHEMBL1157254.

Test system: Staphylococcus aureus
Assay: Inhibition of MDR protein in wild-type Staphylococcus aureus 8325-4 assessed as potentiation of antimicrobial activity of berberine after 18 hrs by twofold serial dilution method
Active and inactive are the calls of the source. The rule behind the calls is not given here.
One label from this list, please: TRUE (active), FALSE (inactive)

Tell me the recorded outcome of this test for COc1ccc2c(c1)O[C@@H]1c3ccc(OC)c(O)c3OC[C@H]21 .
FALSE

Okay, and COc1ccc(-c2coc3cc(O)c(OC)cc3c2=O)c(O)c1 ?
TRUE

Could you do the same for COc1cc(OC(C)=O)ccc1-c1oc2cc3c(cc2c1C=O)OCO3 [SPINOSAN A ACETATE] , please?
TRUE

Same read-out for COc1ccc2c(c1)O[C@@H]1c3ccc(O)cc3OC[C@H]21 ?
TRUE

Similarly, COc1cc(O)ccc1-c1oc2cc3c(cc2c1C=O)OCO3 [SPINOSAN A] ?
TRUE

// query: COc1ccc2c(C=O)c(-c3ccc(O)cc3OC)oc2c1 [SPINOSAN B]
FALSE
